- Test system: HEK-293T
- ASSAY NAME: Cytotoxicity against human 293T cells assessed as cell viability by dual-luciferase reporter assay
- Format: cell-based
Here, each record is paired with measured IC50 data.

The examples below pair each entry with its known result.
{"COMPOUND": "C=C1C(=O)[C@@]23[C@@H]4OC(C)(C)O[C@@H]2C[C@@H]2[C@@](C)(COC(C)=O)CCC[C@@]2(C)[C@@H]3C[C@H](OC(C)=O)[C@@H]14", "MEAS VALUE": "1.8 µM"}
{"COMPOUND": "C=C1C(=O)[C@@]23[C@H](O)C[C@@H]4[C@@](C)(COC(=O)CC)CCC[C@@]4(C)[C@@H]2C[C@H](OC(=O)CC)[C@@H]1[C@H]3O", "MEAS VALUE": "> 5 µM"}

# ---- query compound ----
Prompt: Output IC50 of C=C1C(=O)[C@]23[C@H](O)[C@H]1CC[C@H]2[C@@]12CO[C@]3(O)[C@@H](O)[C@@H]1C(C)(C)CC[C@@H]2O [ORIDONIN]
Completion: > 5 µM

* * *

- Tested on: HEK-293T
- ASSAY NAME: Cytotoxicity against human 293T cells assessed as cell viability by dual-luciferase reporter assay
- Type: cell-based
Param label: returns Fulfilled when IC50 < 2 µM, returns Not fulfilled otherwise, including exact equality.

Reference set, count: 5
{"CHEM SMILES": "C=C1C(=O)[C@@]23[C@@H]4OC(C)(C)O[C@@H]2C[C@@H]2[C@@](C)(CO)CCC[C@@]2(C)[C@@H]3C[C@H](OC(C)=O)[C@@H]14", "TARGET SYSTEM": "HEK-293T", "DISCRETE LABEL": "Not fulfilled"}
{"CHEM SMILES": "C=C1C(=O)[C@@]23[C@H](O)C[C@@H]4[C@@](C)(COC(=O)CCC)CCC[C@@]4(C)[C@@H]2C[C@H](OC(=O)CCC)[C@@H]1[C@H]3O", "TARGET SYSTEM": "HEK-293T", "DISCRETE LABEL": "Not fulfilled"}
{"CHEM SMILES": "C=C1C(=O)[C@@]23[C@H](O)C[C@@H]4[C@@](C)(COC(C)=O)CCC[C@@]4(C)[C@@H]2C[C@H](OC(C)=O)[C@@H]1[C@H]3O", "TARGET SYSTEM": "HEK-293T", "DISCRETE LABEL": "Not fulfilled"}
{"CHEM SMILES": "C=C1C(=O)[C@@]23[C@H](O)C[C@@H]4[C@@](C)(CO)CCC[C@@]4(C)[C@@H]2C[C@H](OC(=O)CCC)[C@@H]1[C@H]3O", "TARGET SYSTEM": "HEK-293T", "DISCRETE LABEL": "Fulfilled"}
{"CHEM SMILES": "CC1=C(O)C(=O)C=C2C1=CC=C1[C@@]2(C)CC[C@@]2(C)[C@@H]3C[C@](C)(C(=O)O)CC[C@]3(C)CC[C@]12C", "TARGET SYSTEM": "HEK-293T", "DISCRETE LABEL": "Fulfilled"}

Now take the following compound into account.
Prompt: Lab log: compare recorded IC50 with 2 µM; is it strictly lower for C=C1C(=O)[C@@]23[C@H](O)C[C@@H]4[C@@](C)(COC(C)=O)CCC[C@@]4(C)[C@@H]2C=C[C@@H]1[C@H]3O ?
Completion: Not fulfilled
